Test system: OVCAR-3
Experiment: NCI tumour cell line growth inhibition, 48 h
Calls of active or inactive are those of the source. Cut-off read from the data, not from the text of the source: active = GI50 up to about 1.1 µM and inactive = higher.
Just give me one of these, please: active, inactive

Record excerpt, results attached:
Can you look up the reported call for "COC(=O)c1ccc(CCc2cc(O)c(Br)cc2O)cc1" for me? inactive

Can you look up the reported call for CC1(Br)C(=O)NC(=O)N(C2CC(N=[N+]=[N-])C(CO)O2)C1N=[N+]=[N-] (stereo not given) for me? inactive

Can you look up the reported call for "O=C(O)c1ccccc1/C=C1\Cc2ccccc2C1=O" for me? inactive

Can you look up the reported call for "C/C(=C\Cc1cc(O)ccc1O)CCc1c(C)cc(O)c(C=O)c1C" for me? inactive

Can you look up the reported call for "Cc1nc2ccccc2n1Cc1nnc(-c2ccccc2)o1" for me? inactive

***
Can you look up the reported call for "CC1=C(C)SC(=C2Sc3c(n(C)c(=O)[nH]c3=O)S2)S1" for me? inactive

Can you look up the reported call for "C#CCN(Cc1ccc2nc(-c3ccccc3)c(N)nc2c1)c1cc(OC)c(OC)c(OC)c1" for me? inactive

Can you look up the reported call for "O=C(/C=C/c1ccccc1)c1cc(CN2CCOCC2)c(O)c(CN2CCOCC2)c1" for me? inactive

Can you look up the reported call for CCCCCCCCCCCCCCCC(=O)Nc1ccn(C2CCC(COP(=O)(O)OCC3OC(n4cc(F)c(=O)[nH]c4=O)CC3OC(C)=O)O2)c(=O)n1 (stereo not given) for me? inactive

Can you look up the reported call for "Cc1ccc(/N=N/c2ccc(N)cc2C)c(S(N)(=O)=O)c1" for me? inactive

====

Documented GI50 across a set of molecules
System: HCT-116
Test: NCI tumour cell line growth inhibition, 48 h
Active and inactive are the calls of the source. No stated cut-off is given here; in the data, active = GI50 up to about 1.1 µM and inactive = higher.

Solved entries:
Entry "COC(=O)c1c(O)ccc2c1c1c(n2Cc2ccccn2)C(=O)c2ccccc2C1" has what GI50? 50 µM (inactive)

Entry COC1(OC)N=C(N)C2(C#N)/C(=N/N(C)C)CC(C)C12C#N (stereo unspecified) has what GI50? > 100 µM (inactive)

Entry CCOC(=O)c1[nH]c2cccc3c2c1CC(Br)C3=O (stereo unspecified) has what GI50? 2.48 µM (inactive)

***
Entry "O=C(O)Cc1ccc2c(c1)/C(=C1/Nc3ccccc3C1=O)C(=O)N2" has what GI50? 24 µM (inactive)

Entry "Cc1ccc(/N=N/c2ccc(N)cc2C)c(S(N)(=O)=O)c1" has what GI50? 75.3 µM (inactive)

====

System: NCI-H522
Assay: NCI tumour cell line growth inhibition, 48 h
Activity calls are given as the source filed them. Cut-off read from the data, not from the text of the source: active = GI50 up to about 1.1 µM and inactive = higher.
Just give me one of these, please: true (active), false (inactive)

Record excerpt, results attached:
Can you look up the reported call for "Fc1cc(C2=C[C@H](c3ccc4c(c3)OCO4)NC(=S)N2)c(Cl)cc1Cl" for me? false

Can you look up the reported call for "Cc1ccc(Nc2nc(C)c(C(=O)CC(=O)C(=O)Nc3c(C)cccc3C(C)(C)C)s2)cc1" for me? false

Can you look up the reported call for "C[n+]1c(-c2ccc(/C=N/Nc3n[nH]c(=S)n3N/N=C/c3ccc(-c4cn5ccccc5[n+]4C)cc3)cc2)cn2ccccc21" for me? false

Can you look up the reported call for CCCCCCCCCCCCCCCCOCC(COP(=O)([O-])OCC[n+]1ccc(N(C)C)cc1)OCC (stereo unspecified) for me? false

Can you look up the reported call for "Cc1c2c(n3c(nc4ccccc43)c1C#N)N(c1ccc(Cl)cc1)CC2" for me? false

Can you look up the reported call for "Oc1cc(-c2ccccc2)cn2c1nc1ccccc12" for me? true

Can you look up the reported call for "O=c1c2ccccc2sc2nc(CCl)nn12" for me? false

Can you look up the reported call for "[O-][n+]1c2c([n+]([O-])c3ccccc31)-c1cccc3cccc-2c13" for me? false

***
Can you look up the reported call for C=C1C[C@@H](O)[C@@H](Br)C(C)(C)[C@]12CCC(C)(Cl)C(Br)C2 (stereo partly specified) for me? false

Can you look up the reported call for "CN(C)C(=S)N1C(=S)N(c2ccccc2)C(=N/c2ccccc2)/C1=N\c1ccccc1" for me? false

Entry source: ChEMBL document CHEMBL1201862
